Listing of entries alongside the reported MIC A.
tested on: A. baumannii ATCC BAA-1605; format: cell-based, Acinetobacter baumannii; details: ATCC BAA-1605, 18 h
Residues, ends and D or L forms follow the SMILES beside them.
attribute measured: MIC A (µg/mL)

>  <compound>
CCCCCCCCCCCCCC(=O)N[C@H](C(=O)N[C@@H](CCCNC(=N)N)C(=O)N[C@@H](CCCNC(=N)N)C(N)=O)C(C)C [compound 94, C14-VRR-NH2] (HELM PEPTIDE1{[CCCCCCCCCCCCCC(=O)[*:2]].V.R.R.[am]}$$$$V2.0)

>  <observed measurement>
32

$$$$
>  <compound>
CCCCCCCCCCCCCC(=O)N[C@H](C(=O)N[C@@H](CCCNC(=N)N)C(=O)N[C@@H](CCCNC(=N)N)C(N)=O)[C@@H](C)CC [compound 38, C14-IRR-NH2] (HELM PEPTIDE1{[CCCCCCCCCCCCCC(=O)[*:2]].I.R.R.[am]}$$$$V2.0)

>  <observed measurement>
64

$$$$
>  <compound>
CCCCCCCCCCCC(=O)N[C@@H](Cc1ccc(O)cc1)C(=O)N[C@@H](CCCNC(=N)N)C(=O)N[C@@H](CCCNC(=N)N)C(N)=O [compound 101, C12-YRR-NH2] (HELM PEPTIDE1{[CCCCCCCCCCCC(=O)[*:2]].Y.R.R.[am]}$$$$V2.0)

>  <observed measurement>
32

$$$$
>  <compound>
CCCCCCCCCCCCCC(=O)N[C@@H](CC[S+](C)[O-])C(=O)N[C@@H](CCCNC(=N)N)C(=O)N[C@@H](CCCNC(=N)N)C(N)=O (stereo partly shown) [compound 54, C14-M(O)RR-NH2] (HELM PEPTIDE1{[CCCCCCCCCCCCCC(=O)[*:2]].[CS(=O)CC[C@H](N[*:1])C(=O)[*:2]].R.R.[am]}$$$$V2.0)

>  <observed measurement>
64

$$$$
>  <compound>
CCCCCCCCCCCCCC(=O)N[C@@H](CCCNC(=N)N)C(=O)N[C@@H](CCCNC(=N)N)C(N)=O [compound 4, C14-RR-NH2, reference compound] (HELM PEPTIDE1{[CCCCCCCCCCCCCC(=O)[*:2]].R.R.[am]}$$$$V2.0)

>  <observed measurement>
64

$$$$
>  <compound>
CCCCCCCCCCCCCC(=O)N[C@@H](CCCNC(=N)N)C(=O)N[C@@H](CCCNC(=N)N)C(=O)N[C@@H](CCCNC(=N)N)C(N)=O [compound 82, C14-RRR-NH2] (HELM PEPTIDE1{[CCCCCCCCCCCCCC(=O)[*:2]].R.R.R.[am]}$$$$V2.0)

>  <observed measurement>
128

$$$$
>  <compound>
CCCCCCCCCCCCCC(=O)N[C@@H](Cc1ccc(O)cc1)C(=O)N[C@@H](CCCNC(=N)N)C(=O)N[C@@H](CCCNC(=N)N)C(N)=O [compound 102, C14-YRR-NH2] (HELM PEPTIDE1{[CCCCCCCCCCCCCC(=O)[*:2]].Y.R.R.[am]}$$$$V2.0)

>  <observed measurement>
32

$$$$
>  <compound>
CCCCCCCCCCCCCC(=O)N[C@H](C(=O)N[C@@H](CCCNC(=N)N)C(=O)N[C@@H](CCCNC(=N)N)C(N)=O)[C@@H](C)O [compound 90, C14-TRR-NH2] (HELM PEPTIDE1{[CCCCCCCCCCCCCC(=O)[*:2]].T.R.R.[am]}$$$$V2.0)

>  <observed measurement>
64

$$$$
>  <compound>
CCCCCCCCCCCCCC(=O)N[C@@H](Cc1ccccc1)C(=O)N[C@@H](CCCNC(=N)N)C(=O)N[C@@H](CCCNC(=N)N)C(N)=O [compound 26, C14-FRR-NH2] (HELM PEPTIDE1{[CCCCCCCCCCCCCC(=O)[*:2]].F.R.R.[am]}$$$$V2.0)

>  <observed measurement>
128

$$$$
>  <compound>
CCCCCCCCCCCCCC(=O)N[C@@H](C)C(=O)N[C@@H](CCCNC(=N)N)C(=O)N[C@@H](CCCNC(=N)N)C(N)=O [compound 10, C14-ARR-NH2] (HELM PEPTIDE1{[CCCCCCCCCCCCCC(=O)[*:2]].A.R.R.[am]}$$$$V2.0)

>  <observed measurement>
32

$$$$
>  <compound>
CCCCCCCCCCCCCC(=O)N[C@@H](CCSC)C(=O)N[C@@H](CCCNC(=N)N)C(=O)N[C@@H](CCCNC(=N)N)C(N)=O [compound 50, C14-MRR-NH2] (HELM PEPTIDE1{[CCCCCCCCCCCCCC(=O)[*:2]].M.R.R.[am]}$$$$V2.0)

>  <observed measurement>
32

$$$$
>  <compound>
CCCCCCCCCCCCCC(=O)N[C@@H](CCCCN)C(=O)N[C@@H](CCCNC(=N)N)C(=O)N[C@@H](CCCNC(=N)N)C(N)=O [compound 42, C14-KRR-NH2] (HELM PEPTIDE1{[CCCCCCCCCCCCCC(=O)[*:2]].K.R.R.[am]}$$$$V2.0)

>  <observed measurement>
64

$$$$
>  <compound>
CCCCCCCCCCCC(=O)N[C@@H](CCCC)C(=O)N[C@@H](CCCNC(=N)N)C(=O)N[C@@H](CCCNC(=N)N)C(N)=O [compound 65, C12-NleRR-NH2] (HELM PEPTIDE1{[CCCCCCCCCCCC(=O)[*:2]].[Nle].R.R.[am]}$$$$V2.0)

>  <observed measurement>
32

$$$$
>  <compound>
CCCCCCCCCCCCCC(=O)NCC(=O)N[C@@H](CCCNC(=N)N)C(=O)N[C@@H](CCCNC(=N)N)C(N)=O [compound 30, C14-GRR-NH2]

>  <observed measurement>
64

$$$$
>  <compound>
CCCCCCCCCCCCCC(=O)N1CCC[C@H]1C(=O)N[C@@H](CCCNC(=N)N)C(=O)N[C@@H](CCCNC(=N)N)C(N)=O [compound 74, C14-PRR-NH2]

>  <observed measurement>
64

$$$$
>  <compound>
CCCCCCCCCCCCCCCCCC(=O)N[C@@H](CCCNC(=N)N)C(=O)N[C@@H](CCCNC(=N)N)C(N)=O [compound 6, C18-RR-NH2, reference compound] (HELM PEPTIDE1{[CCCCCCCCCCCCCCCCCC(=O)[*:2]].R.R.[am]}$$$$V2.0)

>  <observed measurement>
32

$$$$
